- Run description: Toxicity in AlCl3-induced Zebrafish model of Alzheimer's disease assessed as mortality at 10 ug/ml relative to control
- Set-up: species or system Danio rerio
- Measurement setup: in vivo, at 10 µg/mL
Attribute measured: mortality at 10 ug/ml (%)
Write the value in % as a bare number.

GET /values?readout=mortality at 10 ug/ml&item= CCN(C)C(=O)Oc1ccc(/C=C/C(=O)N2CCc3ccccc3C2)cc1OC 0

----------
The entries below are paired with their reported Ratio IC50.
- Species: Homo sapiens
- Run description: Selectivity index, ratio of IC50 for recombinant human MAO-A to IC50 for recombinant human MAO-B
Respond with the number and no other words.

Observe how each entry below is paired with its result.
{"columns": ["Smiles entry", "Ratio IC50"],
 "data": [
  ["CCN(CC)C(=O)Oc1ccc(/C=C/C(=O)N2CCC(Cc3ccccc3)CC2)cc1OC", 1.5],
  ["CCN(C)C(=O)Oc1ccc(/C=C/C(=O)N2CCC(Cc3ccccc3)CC2)cc1", 7.3],
  ["CCN(C)C(=O)Oc1ccc(/C=C/C(=O)N2CCC(Cc3ccccc3)CC2)cc1OC", 1.1]
]}

GET /values?readout=Ratio IC50&item= CCN(C)C(=O)Oc1ccc(/C=C/C(=O)N2CCCCC2)cc1OC 1.8

Next: COc1cc(/C=C/C(=O)N2CCN(Cc3ccccc3)CC2)ccc1OC(=O)N(c1ccccc1)c1ccccc1 0.5

----------
The entries below are paired with their reported Ratio IC50.
- Organism: Homo sapiens
- Run description: Selectivity index, ratio of IC50 for human erythrocytes Ache to IC50 for human serum BuChe
Respond with the number and no other words.

Observe how each entry below is paired with its result.
{"columns": ["Smiles entry", "Ratio IC50"],
 "data": [
  ["CCN(C)C(=O)Oc1ccc(/C=C/C(=O)N2CCC(Cc3ccccc3)CC2)cc1OC", 2.7],
  ["CCN(CC)C(=O)Oc1ccc(/C=C/C(=O)N2CCC(Cc3ccccc3)CC2)cc1OC", 3.9]
]}

GET /values?readout=Ratio IC50&item= CCN(C)C(=O)Oc1ccc(/C=C/C(=O)N(CC)Cc2ccccc2)cc1OC 5.4

Next: COc1cc(/C=C/C(=O)N2CCC(Cc3ccccc3)CC2)ccc1OC(=O)N(C)C 2.2

Next: COc1cc(/C=C/C(=O)N2CCN(Cc3ccccc3)CC2)ccc1OC(=O)N(C)C 1.7

Next: COc1cc(/C=C/C(=O)N2CCc3ccccc3C2)ccc1OC(=O)N(C)C 1.9

Next: COc1cc(/C=C/C(=O)N2CCc3ccccc3C2)ccc1OC(=O)N(C)OC 0.76

Next: CCN(CC)C(=O)/C=C/c1ccc(OC(=O)N(C)C)c(OC)c1 0.86

Next: COc1cc(/C=C/C(=O)N2CCN(Cc3ccccc3)CC2)ccc1OC(=O)N(c1ccccc1)c1ccccc1 1.3

Next: CCN(C)C(=O)Oc1ccc(/C=C/C(=O)N2CCC(Cc3ccccc3)CC2)cc1 4.8

Next: CCN(CC)C(=O)Oc1ccc(/C=C/C(=O)N2CCN(Cc3ccccc3)CC2)cc1OC 1.6

Next: COc1cc(/C=C/C(=O)N2CCCCC2)ccc1OC(=O)N(c1ccccc1)c1ccccc1 1.2

Next: CCN(C)C(=O)Oc1ccc(/C=C/C(=O)N2CCc3ccccc3C2)cc1OC 10.9

Next: CCN(Cc1ccccc1)C(=O)/C=C/c1ccc(OC(=O)N(c2ccccc2)c2ccccc2)c(OC)c1 1.1

Next: COc1cc(/C=C/C(=O)N2CCCCC2)ccc1OC(=O)N(C)C 0.69

----------
- Run description: Cytotoxicity against human LO2 cells assessed as cell viability at 50 uM by MTT assay relative to control
- Assay type: cell-based, L02
- Measurement setup: read-out: Activity
Attribute measured: viability at 50 µM (%)
Write the value in % as a bare number.

GET /values?readout=viability at 50 µM&item= CCN(C)C(=O)Oc1ccc(/C=C/C(=O)N2CCc3ccccc3C2)cc1OC 46.9

----------
- Run description: Toxicity in AlCl3-induced Zebrafish model of Alzheimer's disease assessed as mortality at 50 ug/ml relative to control
- Set-up: species or system Danio rerio
- Measurement setup: in vivo, at 50 µg/mL
Attribute measured: mortality at 50 ug/ml

GET /values?readout=mortality at 50 ug/ml&item= CCN(C)C(=O)Oc1ccc(/C=C/C(=O)N2CCc3ccccc3C2)cc1OC 100%

----------
Recorded pIC50 values (Acetylcholinesterase (Homo sapiens, UniProt P22303)) are given below.
pIC50 here is simply -log10 of the concentration when that concentration is written in mol/L.

GET /values?readout=pIC50&item= COc1cc(/C=C/C(=O)N2CCc3ccccc3C2)ccc1OC(=O)N(c1ccccc1)c1ccccc1 4.52

Next: COc1cc(/C=C/C(=O)N2CCN(Cc3ccccc3)CC2)ccc1OC(=O)N(C)C 4.63

Next: CCN(C)C(=O)Oc1ccc(/C=C/C(=O)N2CCC(Cc3ccccc3)CC2)cc1 4.57

Next: COc1cc(/C=C/C(=O)N2CCN(Cc3ccccc3)CC2)ccc1OC(=O)N(c1ccccc1)c1ccccc1 4.54

Next: CCN(C)C(=O)Oc1ccc(/C=C/C(=O)N2CCc3ccccc3C2)cc1OC 4.97

Next: CCN(C)C(=O)Oc1ccc(/C=C/C(=O)N2CCC(Cc3ccccc3)CC2)cc1OC 4.76

Next: COc1cc(/C=C/C(=O)N2CCc3ccccc3C2)ccc1OC(=O)N(C)OC 4.91

Next: CCN(C)C(=O)Oc1ccc(/C=C/C(=O)N2CCc3ccccc3C2)cc1 5.17

Next: CCN(CC)C(=O)/C=C/c1ccc(OC(=O)N(C)C)c(OC)c1 4.88

Next: COc1cc(/C=C/C(=O)N2CCC(Cc3ccccc3)CC2)ccc1OC(=O)N(C)C 4.78

----------
- Target: UniProt:O42275
- Sequence (O42275 whole entry): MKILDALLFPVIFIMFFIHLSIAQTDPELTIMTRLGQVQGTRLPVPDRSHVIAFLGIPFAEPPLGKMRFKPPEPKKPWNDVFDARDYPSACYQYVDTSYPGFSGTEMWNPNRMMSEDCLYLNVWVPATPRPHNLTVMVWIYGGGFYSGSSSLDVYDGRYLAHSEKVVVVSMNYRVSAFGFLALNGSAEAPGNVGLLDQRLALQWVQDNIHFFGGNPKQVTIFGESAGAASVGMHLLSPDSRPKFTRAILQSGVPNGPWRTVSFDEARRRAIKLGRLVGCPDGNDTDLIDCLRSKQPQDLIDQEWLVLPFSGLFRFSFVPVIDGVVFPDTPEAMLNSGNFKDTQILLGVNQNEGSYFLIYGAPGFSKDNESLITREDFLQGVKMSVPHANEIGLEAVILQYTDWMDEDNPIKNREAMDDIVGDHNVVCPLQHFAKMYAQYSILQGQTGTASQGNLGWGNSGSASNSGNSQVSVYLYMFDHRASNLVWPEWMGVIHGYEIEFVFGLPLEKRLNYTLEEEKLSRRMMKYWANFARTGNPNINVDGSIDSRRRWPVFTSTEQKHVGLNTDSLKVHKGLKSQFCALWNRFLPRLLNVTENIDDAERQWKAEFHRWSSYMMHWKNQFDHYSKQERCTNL
Cut-off 20 µM on IC50: below means t, at or above means f.

{"columns": ["Smiles entry", "Assigned category"],
 "data": [
  ["COc1cc(/C=C/C(=O)N2CCC(Cc3ccccc3)CC2)ccc1OC(=O)N(c1ccccc1)c1ccccc1", "f"]
]}

Hello, I'm reviewing records and need to know if IC50 of CCN(C)C(=O)Oc1ccc(/C=C/C(=O)N2CCCCC2)cc1OC is below 20 µM. Could you check? t

Next: COc1cc(/C=C/C(=O)N2CCc3ccccc3C2)ccc1OC(=O)N(c1ccccc1)c1ccccc1 f

Next: CCN(C)C(=O)Oc1ccc(/C=C/C(=O)N2CCc3ccccc3C2)cc1 t

Next: COc1cc(/C=C/C(=O)N2CCCCC2)ccc1OC(=O)N(C)C t

Next: COc1cc(/C=C/C(=O)N2CCN(Cc3ccccc3)CC2)ccc1OC(=O)N(C)C f

----------
- Target: Amine oxidase [flavin-containing] A (Homo sapiens, UniProt P21397)
- Sequence (P21397 whole entry): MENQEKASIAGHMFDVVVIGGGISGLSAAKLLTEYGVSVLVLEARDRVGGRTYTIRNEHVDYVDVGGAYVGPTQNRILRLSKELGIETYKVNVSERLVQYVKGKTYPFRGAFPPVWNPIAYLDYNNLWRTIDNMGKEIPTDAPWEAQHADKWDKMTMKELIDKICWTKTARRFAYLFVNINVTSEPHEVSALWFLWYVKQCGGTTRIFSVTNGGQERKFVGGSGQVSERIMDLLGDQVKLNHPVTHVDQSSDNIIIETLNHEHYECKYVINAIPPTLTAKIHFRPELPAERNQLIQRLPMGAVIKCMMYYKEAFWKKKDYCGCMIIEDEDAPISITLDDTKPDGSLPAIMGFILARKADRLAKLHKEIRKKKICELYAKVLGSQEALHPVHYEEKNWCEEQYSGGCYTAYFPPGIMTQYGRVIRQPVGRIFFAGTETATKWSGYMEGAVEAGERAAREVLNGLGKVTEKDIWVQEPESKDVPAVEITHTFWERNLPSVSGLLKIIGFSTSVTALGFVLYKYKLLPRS
- Run description: Inhibition of recombinant human MAO-A
The entries below are paired with their reported pIC50.
pIC50 here is simply -log10 of the concentration when that concentration is written in mol/L.

Observe how each entry below is paired with its result.
{"columns": ["Smiles entry", "Recorded number"],
 "data": [
  ["COc1cc(/C=C/C(=O)N2CCc3ccccc3C2)ccc1OC(=O)N(C)OC", 4.65],
  ["CCN(C)C(=O)Oc1ccc(/C=C/C(=O)N(CC)Cc2ccccc2)cc1OC", 4.85],
  ["CCN(CC)C(=O)Oc1ccc(/C=C/C(=O)N2CCN(Cc3ccccc3)CC2)cc1OC", 4.71],
  ["COc1cc(/C=C/C(=O)N2CCCCC2)ccc1OC(=O)N(C)C", 4.48]
]}

Below: the item to evaluate.
GET /values?readout=pIC50&item= CCN(C)C(=O)Oc1ccc(/C=C/C(=O)N2CCN(Cc3ccccc3)CC2)cc1 5.01

----------
- Run description: Toxicity in AlCl3-induced Zebrafish model of Alzheimer's disease assessed as mortality at 1 ug/ml relative to control
- Parameters: species or system Danio rerio
- Measurement setup: in vivo, at 1 µg/mL
Attribute measured: mortality at 1 ug/ml (%)
Write the value in % as a bare number.

GET /values?readout=mortality at 1 ug/ml&item= CCN(C)C(=O)Oc1ccc(/C=C/C(=O)N2CCc3ccccc3C2)cc1OC 0

----------
The entries below are paired with their reported pIC50.
- Target: Cholinesterase (Homo sapiens, UniProt P06276)
- Sequence (P06276 whole entry): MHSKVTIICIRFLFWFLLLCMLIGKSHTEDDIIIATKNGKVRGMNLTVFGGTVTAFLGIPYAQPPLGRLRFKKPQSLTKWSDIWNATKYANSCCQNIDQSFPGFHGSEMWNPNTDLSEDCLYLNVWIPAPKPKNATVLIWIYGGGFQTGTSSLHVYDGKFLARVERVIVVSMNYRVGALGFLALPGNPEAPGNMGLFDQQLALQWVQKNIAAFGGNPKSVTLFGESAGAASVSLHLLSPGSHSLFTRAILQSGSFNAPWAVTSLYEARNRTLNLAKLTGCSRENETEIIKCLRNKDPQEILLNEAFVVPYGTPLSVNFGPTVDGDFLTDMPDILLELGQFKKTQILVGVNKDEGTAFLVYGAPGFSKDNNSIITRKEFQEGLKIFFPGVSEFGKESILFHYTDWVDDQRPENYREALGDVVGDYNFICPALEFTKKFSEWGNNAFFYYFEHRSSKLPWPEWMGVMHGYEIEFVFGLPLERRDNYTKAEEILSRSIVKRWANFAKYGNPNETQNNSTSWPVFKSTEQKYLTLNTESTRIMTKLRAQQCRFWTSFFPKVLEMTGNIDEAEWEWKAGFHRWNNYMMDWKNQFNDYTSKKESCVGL
- Run description: Inhibition of human serum BuChE using acetylcholine iodide as substrate incubated for 15 mins by Ellman's method
pIC50 here is simply -log10 of the concentration when that concentration is written in mol/L.

{"columns": ["Smiles entry", "Target", "pIC50"],
 "data": [
  ["COc1cc(/C=C/C(=O)N2CCc3ccccc3C2)ccc1OC(=O)N(C)C", "Cholinesterase (Homo sapiens, UniProt P06276)", 5.02],
  ["COc1cc(/C=C/C(=O)N2CCc3ccccc3C2)ccc1OC(=O)N(c1ccccc1)c1ccccc1", "Cholinesterase (Homo sapiens, UniProt P06276)", 4.59],
  ["COc1cc(/C=C/C(=O)N2CCCCC2)ccc1OC(=O)N(C)C", "Cholinesterase (Homo sapiens, UniProt P06276)", 4.88],
  ["COc1cc(/C=C/C(=O)N2CCc3ccccc3C2)ccc1OC(=O)N(C)OC", "Cholinesterase (Homo sapiens, UniProt P06276)", 4.79]
]}

GET /values?readout=pIC50&item= CCN(CC)C(=O)Oc1ccc(/C=C/C(=O)N2CCc3ccccc3C2)cc1OC 5.11
